Values compiled from paper PMC13245405.

- assayed system: ParB2 (Streptomyces coelicolor)
- Construct: ParB2-His6, C-terminal His6 kept, pET21b, codon-optimized synthetic gene, E. coli Rosetta (BL21 DE3) pLysS; dimer
- Sequence (Q9ACT0 entry or part of it): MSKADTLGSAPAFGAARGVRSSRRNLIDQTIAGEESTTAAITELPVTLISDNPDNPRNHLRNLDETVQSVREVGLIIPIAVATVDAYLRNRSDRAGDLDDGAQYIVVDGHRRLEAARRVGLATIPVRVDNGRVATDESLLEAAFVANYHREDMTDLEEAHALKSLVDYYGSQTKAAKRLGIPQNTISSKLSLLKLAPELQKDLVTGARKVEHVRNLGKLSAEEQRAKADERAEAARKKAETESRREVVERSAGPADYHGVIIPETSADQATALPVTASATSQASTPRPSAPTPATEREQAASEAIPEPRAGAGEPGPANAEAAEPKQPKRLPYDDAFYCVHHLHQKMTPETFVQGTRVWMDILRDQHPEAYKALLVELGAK
- experimental protocol: isothermal titration calorimetry
readout name: pKd
When answering, recall that pKd equals minus log10 of the concentration in mol/L, and write that number alone.

Please state recorded pKd (tested on ParB2 (Streptomyces coelicolor)) of Nc1ccn([C@@H]2O[C@H](COP(=O)(O)OP(=O)(O)OP(O)(O)=S)[C@@H](O)[C@H]2O)c(=O)n1 4.90
